assay: RP, Agilent ZORBAX Eclipse Plus C18, 150 × 2.1 mm, 3.5 µm, 40 °C, 0.3 mL/min, estimated dead time 1.1 min; A: water + 0.1% formic acid; B: acetonitrile + 0.1% formic acid; gradient (min/%B) 0/2 1/2 2/20 16.5/98 22/98; settings: stereoisomer not certain
endpoint_label: log10 LC retention time (log10 of the value in min)
The base-10 logarithm of LC retention time, taken with LC retention time in min, is what appears here.

Consider the reported log10 LC retention time for these compounds:
compound	result_number
Nc1ccn(C2CSC(CO)O2)c(=O)n1 (configuration not stated)	0.49
CC12CCC3c4ccc(O)cc4CCC3C1CCC2=O (configuration not stated)	1.05
CC(=O)Nc1ccc(O)c(O)c1	0.65
O=P(O)(O)Oc1ccccc1	0.54
O=C(O)c1cccc2c(=O)c3ccccc3[nH]c12	0.95
CNCC(CC(=O)O)CC(C)C (configuration not stated)	0.68
COC1=C(C)C(=O)C2=C(C1=O)C(COC(N)=O)C1(OC)C3NC3CN21 (configuration not stated)	0.85
Nc1ncnc2c1ncn2C1CC(O)C(COP(=O)(O)O)O1 (configuration not stated)	0.34

State the recorded log10 LC retention time for this entry: COc1ccc(C(C[N+](C)(C)[O-])C2(O)CCCCC2)cc1 (configuration not stated)
0.86

----------
assay: RP, Agilent ZORBAX Eclipse Plus C18, 150 × 2.1 mm, 3.5 µm, 40 °C, 0.3 mL/min, estimated dead time 1.1 min; A: water + 0.1% formic acid; B: acetonitrile + 0.1% formic acid; gradient (min/%B) 0/2 1/2 2/20 16.5/98 22/98; conditions: stereoisomer not certain
The reader will find reported LC retention time values listed item by item below.
# number only, unit min dropped from output

>>> df
                                   compound     endpoint_label  result_number
0                          NC(=O)CN1CCCC1=O  LC retention time           2.62
1  CC(Cc1ccc(C(C)C(=O)O)cc1)C(=O)O (centres undefined)  LC retention time           8.48
2                             COP(=O)(OC)OC  LC retention time           4.97

Let's switch to this compound now.
State the recorded LC retention time for this entry: CCCCC(CC)COP(=O)(Oc1ccccc1)Oc1ccccc1 (centres undefined)
17

----------
assay: RP, Agilent ZORBAX Eclipse Plus C18, 150 × 2.1 mm, 3.5 µm, 40 °C, 0.3 mL/min, estimated dead time 1.1 min; A: water + 0.1% formic acid; B: acetonitrile + 0.1% formic acid; gradient (min/%B) 0/2 1/2 2/20 16.5/98 22/98; conditions: stereoisomer not certain
Each record gets a class by LC retention time: low group = under 8 min, middle group = from 8 min up to 10 min, high group = 10 min and over

A selection of reference data follows.
In [3]: df
Out[3]:
                                   molecule   class_label
0                      CC(=O)OCC[N+](C)(C)C     low group
1                         O=P(O)(O)c1ccccc1     low group
2  Nc1nc(NC2CC2)c2ncn(C3C=CC(C(=O)O)C3)c2n1 (stereo not drawn)     low group
3                  CCCN(CCC)C(=O)SCc1ccccc1    high group
4                 CNNCc1ccc(C(=O)NC(C)C)cc1     low group
5  CC(C)(C(=O)O)c1ccc(C(O)CCCN2CCC(C(O)(c3ccccc3)c3ccccc3)CC2)cc1 (stereo not drawn)  middle group

Hi, small favor: classify OCC[P+](c1ccccc1)(c1ccccc1)c1ccccc1 by its LC retention time when you get a moment.
low group

Hi, small favor: classify NC(=O)N1c2ccccc2CC(=O)c2ccccc21 by its LC retention time when you get a moment.
middle group

Each recorded value in this set is attributed to the RepoRT retention time repository (doi:10.1016/j.chroma.2015.11.014).
